Entry source: patent US20240123070A1

- MEASUREMENT_TARGET: KRAS G13D antigen (G13D-RT6, SEQ ID NO: 20) loaded on Lovo-DPA0301:DPB0501 cells (human)
- ASSAY_TEXT: cell-based or functional assay
Criterion met if TCR Mut RLU/WT RLU is below 0.5 ratio. Criterion not met if not; exact matches included in Criterion not met.

These recorded examples may help you get a feel for the data.
- B8.2.4 TCR mutant β95Q-E (TCR, V domains shown) V domain 1: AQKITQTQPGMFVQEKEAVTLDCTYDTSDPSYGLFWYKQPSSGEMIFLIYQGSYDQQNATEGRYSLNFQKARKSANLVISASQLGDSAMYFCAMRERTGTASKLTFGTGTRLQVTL V domain 2: DVKVTQSSRYLVKRTGEKVFLECVQDMDHENMFWYRQDPGLGLRLIYFSYDVKMKEKGDIPEGYSVSREKKERFSLILESASTNQTSMYLCASSETVPPQHFGDGTRLSILE: Criterion not met
- B8.2.4 TCR mutant β95Q-M (TCR, V domains shown) V domain 1: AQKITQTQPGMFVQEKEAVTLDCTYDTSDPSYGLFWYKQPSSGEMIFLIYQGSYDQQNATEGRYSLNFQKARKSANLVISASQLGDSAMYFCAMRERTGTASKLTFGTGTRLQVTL V domain 2: DVKVTQSSRYLVKRTGEKVFLECVQDMDHENMFWYRQDPGLGLRLIYFSYDVKMKEKGDIPEGYSVSREKKERFSLILESASTNQTSMYLCASSMTVPPQHFGDGTRLSILE: Criterion not met
- B8.2.4 TCR mutant β96T-P (TCR, V domains shown) V domain 1: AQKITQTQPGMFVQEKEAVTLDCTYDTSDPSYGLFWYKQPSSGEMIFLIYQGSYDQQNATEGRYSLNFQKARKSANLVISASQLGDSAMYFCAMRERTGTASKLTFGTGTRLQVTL V domain 2: DVKVTQSSRYLVKRTGEKVFLECVQDMDHENMFWYRQDPGLGLRLIYFSYDVKMKEKGDIPEGYSVSREKKERFSLILESASTNQTSMYLCASSQPVPPQHFGDGTRLSILE: Criterion met

Could you now look at the following binder, please?
Dear colleague, could you confirm whether TCR Mut RLU/WT RLU of B8.2.4 TCR mutant β98P-Y (TCR, V domains shown) V domain 1: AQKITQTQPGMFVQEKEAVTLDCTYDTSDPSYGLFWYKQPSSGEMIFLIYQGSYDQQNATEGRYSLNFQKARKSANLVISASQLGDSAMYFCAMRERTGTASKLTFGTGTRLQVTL V domain 2: DVKVTQSSRYLVKRTGEKVFLECVQDMDHENMFWYRQDPGLGLRLIYFSYDVKMKEKGDIPEGYSVSREKKERFSLILESASTNQTSMYLCASSQTVYPQHFGDGTRLSILE falls below 0.5 ratio? Thanks.
Criterion met
